Each recorded value in this set is attributed to the RNAGym collection of RNA variant scans (doi:10.7554/elife.80360).

B1: HDV Ribozyme (parent)
chain: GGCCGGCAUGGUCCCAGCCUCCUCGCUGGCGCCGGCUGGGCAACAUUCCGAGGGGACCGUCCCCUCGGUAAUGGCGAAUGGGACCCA

Variants of: B1
Experiment: self-cleavage, relative activity (ratio to wild type); higher = more cleavage; co-transcriptional
Please use t whenever self-cleavage is not below 0.1, and f whenever it is.

Look over these answered cases.
>>> print(df.to_string())
   mutationkey  assignedclass
0    U72A U79A              t
1    C49G A78G              t
2    C44A U79G              t
3    G35A A45C              f

# check: self-cleavage of A71G G76A is greater than or equal to 0.1
t
